molecular target: intracellular GCN2 (phosphorylation of the GCN2 substrate eIF2α) (Homo sapiens); test: GCN2 cellular inhibition assay (AlphaScreen SureFire P-eIF2α Ser51, borrelidin-treated U2OS cells); type: cell-based; conditions: compounds of Formula II; biomarker assay, phosphorylated eIF2α Ser51 in borrelidin-treated U2OS cells
Sequence (Q9P2K8 whole entry): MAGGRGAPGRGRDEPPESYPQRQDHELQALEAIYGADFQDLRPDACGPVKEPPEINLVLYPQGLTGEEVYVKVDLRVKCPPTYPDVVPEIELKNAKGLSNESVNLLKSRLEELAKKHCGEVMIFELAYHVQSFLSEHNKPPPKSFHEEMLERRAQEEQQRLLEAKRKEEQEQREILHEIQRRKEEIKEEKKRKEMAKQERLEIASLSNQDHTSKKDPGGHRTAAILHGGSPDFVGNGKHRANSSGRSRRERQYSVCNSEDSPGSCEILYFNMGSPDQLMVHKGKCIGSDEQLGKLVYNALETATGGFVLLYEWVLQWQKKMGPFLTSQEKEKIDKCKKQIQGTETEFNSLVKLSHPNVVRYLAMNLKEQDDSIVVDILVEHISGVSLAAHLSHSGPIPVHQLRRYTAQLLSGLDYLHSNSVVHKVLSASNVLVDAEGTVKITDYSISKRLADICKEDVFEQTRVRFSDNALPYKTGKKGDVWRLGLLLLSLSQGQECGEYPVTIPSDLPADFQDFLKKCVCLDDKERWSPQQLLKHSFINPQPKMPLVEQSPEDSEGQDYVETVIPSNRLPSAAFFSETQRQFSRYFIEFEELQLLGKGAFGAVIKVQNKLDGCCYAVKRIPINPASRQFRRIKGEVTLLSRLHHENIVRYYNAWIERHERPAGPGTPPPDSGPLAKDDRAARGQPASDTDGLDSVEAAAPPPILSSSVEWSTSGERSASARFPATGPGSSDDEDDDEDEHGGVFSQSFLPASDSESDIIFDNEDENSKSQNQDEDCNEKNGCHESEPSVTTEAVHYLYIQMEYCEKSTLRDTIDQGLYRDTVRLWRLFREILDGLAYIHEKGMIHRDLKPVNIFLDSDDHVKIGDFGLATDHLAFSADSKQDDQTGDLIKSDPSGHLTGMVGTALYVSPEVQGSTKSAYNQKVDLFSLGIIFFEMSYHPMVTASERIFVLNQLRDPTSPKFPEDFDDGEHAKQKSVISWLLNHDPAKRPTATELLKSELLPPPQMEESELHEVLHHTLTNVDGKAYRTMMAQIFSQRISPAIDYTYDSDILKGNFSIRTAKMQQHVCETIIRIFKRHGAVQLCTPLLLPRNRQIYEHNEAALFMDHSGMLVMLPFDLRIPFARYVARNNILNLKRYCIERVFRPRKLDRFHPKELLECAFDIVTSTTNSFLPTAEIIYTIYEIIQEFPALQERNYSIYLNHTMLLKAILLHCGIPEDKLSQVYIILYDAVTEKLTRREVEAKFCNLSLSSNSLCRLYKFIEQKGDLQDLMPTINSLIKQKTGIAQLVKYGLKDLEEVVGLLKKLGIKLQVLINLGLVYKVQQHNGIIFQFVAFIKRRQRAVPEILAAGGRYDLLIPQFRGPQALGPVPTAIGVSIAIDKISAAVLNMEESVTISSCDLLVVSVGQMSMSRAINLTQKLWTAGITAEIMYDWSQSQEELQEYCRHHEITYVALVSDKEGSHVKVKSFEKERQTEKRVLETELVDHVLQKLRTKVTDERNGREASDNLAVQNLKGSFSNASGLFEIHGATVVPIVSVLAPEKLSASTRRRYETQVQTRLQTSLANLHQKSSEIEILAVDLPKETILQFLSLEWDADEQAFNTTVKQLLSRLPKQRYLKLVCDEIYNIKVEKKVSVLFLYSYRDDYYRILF
pIC50: −log10 of the molar value.
quantity name: pIC50

Worked cases, pIC50 given:
compound: CC1C(CNS(C)(=O)=O)N(C2CC2)CCN1c1cc(-c2cnc3ccc(C(F)F)nn23)ncn1 (single isomer, unassigned) [II-479]
target under test: intracellular GCN2 (phosphorylation of the GCN2 substrate eIF2α) (Homo sapiens)
obs value: > 6.30

compound: C[C@H]1[C@@H](N=S(C)(C)=O)CCCN1c1cc(-c2cnc3ccc(C(F)F)nn23)ncn1 (single isomer, unassigned)
target under test: intracellular GCN2 (phosphorylation of the GCN2 substrate eIF2α) (Homo sapiens)
obs value: > 6.30

compound: CC(=O)N1CCN(c2cccc(-c3cnc4ccc(C(F)F)nn34)n2)CC1
target under test: intracellular GCN2 (phosphorylation of the GCN2 substrate eIF2α) (Homo sapiens)
obs value: < 5.30

compound: O=C1NCCC12CCCN(c1cc(-c3cnc4ccc(C(F)F)nn34)ncn1)C2 (centres unmarked)
target under test: intracellular GCN2 (phosphorylation of the GCN2 substrate eIF2α) (Homo sapiens)
obs value: 5.30 to 6.30

compound: CC1C(CNS(C)(=O)=O)C(F)(F)C(C)CN1c1cc(-c2cnc3ccc(C(F)F)nn23)ncn1 (centres unmarked) [II-462]
target under test: intracellular GCN2 (phosphorylation of the GCN2 substrate eIF2α) (Homo sapiens)
obs value: > 6.30

Find the recorded pIC50 belonging to CC(=O)Nc1cccc2c1CCN(c1cc(-c3cnc4ccc(C(F)F)nn34)ncn1)C2 and report it.
5.30 to 6.30

Find the recorded pIC50 belonging to C[C@H]1CCCCN1c1cc(-c2cnc3ccc(C(F)F)nn23)ncn1 and report it.
5.30 to 6.30

Find the recorded pIC50 belonging to CC1(C)COCCN1c1cc(-c2cnc3ccc(C(F)F)nn23)ncn1 and report it.
< 5.30

---

Recorded pIC50, one value per entry.
target: intracellular GCN2 (phosphorylation of the GCN2 substrate eIF2α) (Homo sapiens); assay: GCN2 cellular inhibition assay (AlphaScreen SureFire P-eIF2α Ser51, borrelidin-treated U2OS cells); type: cell-based; details: compounds of Formula IV; biomarker assay, phosphorylated eIF2α Ser51 in borrelidin-treated U2OS cells
pIC50: −log10 of the molar value.

Worked cases, pIC50 given:
molecule: FC(F)(F)c1cn2c(-c3nccc(N4CCCC(c5cn[nH]c5Cl)C4)n3)cnc2cn1 (centres unmarked)
pIC50: > 6.30
//
molecule: OC1CCN(c2ccnc(-c3cnc4cnc(C(F)(F)F)cn34)n2)CC1c1cn[nH]c1 (single isomer, unassigned) [IV-624]
pIC50: 5.30 to 6.30
//
molecule: FC(F)(F)c1cn2c(-c3nccc(N4CCC(C5CCOC5)C4)n3)cnc2cn1 (centres unmarked) [IV-608]
pIC50: 5.30 to 6.30

Find the recorded pIC50 belonging to FC(F)c1cn2c(-c3nsc(N4CCOC(c5cn[nH]c5)C4)n3)cnc2cn1 (centres unmarked) and report it.
< 5.30

Find the recorded pIC50 belonging to O=C1CN(c2ccnc(-c3cnc4cnc(C(F)(F)F)cn34)n2)CC(c2cn[nH]c2)N1 (centres unmarked) and report it.
< 5.30

Find the recorded pIC50 belonging to NC(=O)c1ccc(F)c(-c2ccnc(-c3cnc4cnc(C(F)F)cn34)n2)c1 and report it.
< 5.30

Find the recorded pIC50 belonging to FC(F)c1cn2c(-c3nccc(N4CCCC(c5c[nH]cn5)C4)n3)cnc2cn1 (centres unmarked) and report it.
5.30 to 6.30

Find the recorded pIC50 belonging to OCc1cccc(-c2ccnc(-c3cnc4cnc(C(F)F)cn34)n2)c1 and report it.
< 5.30

Find the recorded pIC50 belonging to NC(=O)C1COCCN(c2ccnc(-c3cnc4cnc(C(F)F)cn34)n2)C1 (centres unmarked) [IV-117] and report it.
< 5.30

Find the recorded pIC50 belonging to OCC1CCCN(c2ccnc(-c3cnc4cnc(C(F)F)cn34)n2)C1 (centres unmarked) and report it.
< 5.30

Find the recorded pIC50 belonging to Brc1cn2c(-c3nccc(N4CCCC(c5cn[nH]c5)C4)n3)cnc2cn1 (single isomer, unassigned) [IV-360] and report it.
> 6.30

Find the recorded pIC50 belonging to Cc1n[nH]cc1[C@H]1C[C@@H](O)CN(c2ccnc(-c3cnc4cnc(C(F)(F)F)cn34)n2)C1 and report it.
5.30 to 6.30

Find the recorded pIC50 belonging to FC(F)(F)c1cn2c(-c3nccc(N4CCOC(c5cn[nH]c5)C4)n3)cnc2cn1 (single isomer, unassigned) [IV-7] and report it.
5.30 to 6.30

Find the recorded pIC50 belonging to O=C1NCC2(CCCN(c3ccnc(-c4cnc5cnc(C(F)F)cn45)n3)CC2)O1 (centres unmarked) and report it.
< 5.30

Find the recorded pIC50 belonging to CS(=O)(=O)N1C2CCC1CN(c1ccnc(-c3cnc4cnc(C(F)F)cn34)n1)C2 and report it.
< 5.30

Find the recorded pIC50 belonging to CS(=O)(=O)NC1CCCN(c2ccnc(-c3cnc4cnc(C(F)F)cn34)n2)CC1 (centres unmarked) and report it.
< 5.30

Find the recorded pIC50 belonging to Cc1[nH]ncc1C1CN(c2ccnc(-c3cnc4cnc(C(F)F)cn34)n2)CC(C)N1 (single isomer, unassigned) [IV-463] and report it.
< 5.30
